Cited source for all entries: paper PMC12416549

Listing: apparent Kd (screen) of selected binders
SYSTEM UNDER TEST: T1, TNFR1 (Homo sapiens, UniProt P19438)
T1 chain: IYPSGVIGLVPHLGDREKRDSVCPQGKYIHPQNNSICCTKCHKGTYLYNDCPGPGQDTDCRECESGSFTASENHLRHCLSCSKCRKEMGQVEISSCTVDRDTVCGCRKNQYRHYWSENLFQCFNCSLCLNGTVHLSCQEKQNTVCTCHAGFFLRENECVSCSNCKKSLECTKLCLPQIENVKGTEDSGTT
METHOD NOTES: yeast display SC50

>  <BINDER>
V57H (designed binder) MTLQELLREEALRRAEAEAFRYALELLAEKFPEQKEYLLDLAEEIESQIRSLSGVDHEDVRKFLDKEWAWVKELLAEHPAELAEVEAARAARLAELRAEVEAKVAA

>  <apparent Kd (screen), nM>
0.593

$$$$
>  <BINDER>
E43W (designed binder) MTLQELLREEALRRAEAEAFRYALELLAEKFPEQKEYLLDLAWEIESQIRSLSGVDVEDVRKFLDKEWAWVKELLAEHPAELAEVEAARAARLAELRAEVEAKVAA

>  <apparent Kd (screen), nM>
0.539

$$$$
>  <BINDER>
A76M (designed binder) MTLQELLREEALRRAEAEAFRYALELLAEKFPEQKEYLLDLAEEIESQIRSLSGVDVEDVRKFLDKEWAWVKELLMEHPAELAEVEAARAARLAELRAEVEAKVAA

>  <apparent Kd (screen), nM>
0.869

$$$$
>  <BINDER>
E9R (designed binder) MTLQELLRREALRRAEAEAFRYALELLAEKFPEQKEYLLDLAEEIESQIRSLSGVDVEDVRKFLDKEWAWVKELLAEHPAELAEVEAARAARLAELRAEVEAKVAA

>  <apparent Kd (screen), nM>
1.4

$$$$
>  <BINDER>
A19W (designed binder) MTLQELLREEALRRAEAEWFRYALELLAEKFPEQKEYLLDLAEEIESQIRSLSGVDVEDVRKFLDKEWAWVKELLAEHPAELAEVEAARAARLAELRAEVEAKVAA

>  <apparent Kd (screen), nM>
9.41

$$$$
>  <BINDER>
V60E (designed binder) MTLQELLREEALRRAEAEAFRYALELLAEKFPEQKEYLLDLAEEIESQIRSLSGVDVEDERKFLDKEWAWVKELLAEHPAELAEVEAARAARLAELRAEVEAKVAA

>  <apparent Kd (screen), nM>
4.39

$$$$
>  <BINDER>
V100Y (designed binder) MTLQELLREEALRRAEAEAFRYALELLAEKFPEQKEYLLDLAEEIESQIRSLSGVDVEDVRKFLDKEWAWVKELLAEHPAELAEVEAARAARLAELRAEYEAKVAA

>  <apparent Kd (screen), nM>
0.49

$$$$
>  <BINDER>
E44W (designed binder) MTLQELLREEALRRAEAEAFRYALELLAEKFPEQKEYLLDLAEWIESQIRSLSGVDVEDVRKFLDKEWAWVKELLAEHPAELAEVEAARAARLAELRAEVEAKVAA

>  <apparent Kd (screen), nM>
0.539

$$$$
>  <BINDER>
A105T (designed binder) MTLQELLREEALRRAEAEAFRYALELLAEKFPEQKEYLLDLAEEIESQIRSLSGVDVEDVRKFLDKEWAWVKELLAEHPAELAEVEAARAARLAELRAEVEAKVTA

>  <apparent Kd (screen), nM>
0.869

$$$$
>  <BINDER>
I49P (designed binder) MTLQELLREEALRRAEAEAFRYALELLAEKFPEQKEYLLDLAEEIESQPRSLSGVDVEDVRKFLDKEWAWVKELLAEHPAELAEVEAARAARLAELRAEVEAKVAA

>  <apparent Kd (screen), nM>
24.4

$$$$
>  <BINDER>
A42R (designed binder) MTLQELLREEALRRAEAEAFRYALELLAEKFPEQKEYLLDLREEIESQIRSLSGVDVEDVRKFLDKEWAWVKELLAEHPAELAEVEAARAARLAELRAEVEAKVAA

>  <apparent Kd (screen), nM>
2.25

$$$$
>  <BINDER>
T2F (designed binder) MFLQELLREEALRRAEAEAFRYALELLAEKFPEQKEYLLDLAEEIESQIRSLSGVDVEDVRKFLDKEWAWVKELLAEHPAELAEVEAARAARLAELRAEVEAKVAA

>  <apparent Kd (screen), nM>
0.539

$$$$
>  <BINDER>
E58D (designed binder) MTLQELLREEALRRAEAEAFRYALELLAEKFPEQKEYLLDLAEEIESQIRSLSGVDVDDVRKFLDKEWAWVKELLAEHPAELAEVEAARAARLAELRAEVEAKVAA

>  <apparent Kd (screen), nM>
0.539

$$$$
>  <BINDER>
E9P (designed binder) MTLQELLRPEALRRAEAEAFRYALELLAEKFPEQKEYLLDLAEEIESQIRSLSGVDVEDVRKFLDKEWAWVKELLAEHPAELAEVEAARAARLAELRAEVEAKVAA

>  <apparent Kd (screen), nM>
20.2

$$$$
>  <BINDER>
E84Q (designed binder) MTLQELLREEALRRAEAEAFRYALELLAEKFPEQKEYLLDLAEEIESQIRSLSGVDVEDVRKFLDKEWAWVKELLAEHPAELAQVEAARAARLAELRAEVEAKVAA

>  <apparent Kd (screen), nM>
0.869

$$$$
>  <BINDER>
L38R (designed binder) MTLQELLREEALRRAEAEAFRYALELLAEKFPEQKEYRLDLAEEIESQIRSLSGVDVEDVRKFLDKEWAWVKELLAEHPAELAEVEAARAARLAELRAEVEAKVAA

>  <apparent Kd (screen), nM>
4.39

$$$$
